Ref: patent US7629356B2

Recorded below: Ki, system human β-Secretase (soluble part AA1-AA460, sBACE-Fc) (Homo sapiens).
One number for each entry, in nM.

For each of the items listed, what is its Ki?
1. COc1ccc(C2(c3cccc(-c4cncnc4)c3)N=C(N)c3ncccc32)cc1 (stereo not drawn) [Example 5]
2. COc1cccc(-c2cccc(C3(c4ccncc4)N=C(N)c4ncccc43)c2)c1F (stereo not drawn) [Example 12]
3. NC1=NC(c2ccncc2)(c2cccc(-c3cncnc3)c2)c2cnccc21 (stereo not drawn) [Example 16]
4. NC1=NC(c2ccncc2)(c2cccc(-c3cccnc3F)c2)c2cnccc21 (stereo not drawn) [Example 17]
5. COc1ccc(C2(c3cccc(-c4cncc(OC)c4)c3)N=C(N)c3ncccc32)cc1 (stereo not drawn) [Example 7]
6. NC1=NC(c2ccncc2)(c2cccc(-c3cccnc3F)c2)c2ncccc21 (stereo not drawn) [Example 21]

Response:
1: 282; 2: 398; 3: 91; 4: 62; 5: 178; 6: 93
